Tested on: MAP3K3;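 note: KINOMEscan kinase panel screen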
Conditions: concentration: 1 μM, replicates: in singlicate; n = 1
Readout: %Inh (%)
Output spec: scalar in %, unitless text.

Consider the reported %Inh for these compounds:
# Compound, %Inh (%)
records = [
    ("Cc1cccc(-c2nc(Nc3ccc4[nH]ncc4c3)c3ccccc3n2)n1", 0),
    ("Cc1c(Cn2ccn3c(=O)cc(N4CCOCC4)nc23)cccc1C(F)(F)F", 0),
    ("Cc1ccccc1-n1cnc2c(N)ncnc21", 0),
    ("Cc1ccc(C(=O)Nc2ccc(Nc3ccnc4cc(-c5ccccn5)ccc34)cc2O)cc1.Cl", 0),
]

Record Nc1ncnc2[nH]c(-c3ccccc3)nc12 . Reported %Inh: 0

Record COc1ccc(Nc2nccc(NCCNC(=O)Nc3ccccc3F)n2)cc1 . Reported %Inh: 0

Record Cc1ccc(NC(=O)Nc2cccc(Cl)c2)cc1-c1ccc(C(=O)Nc2ccncc2)cc1 . Reported %Inh: 0

Record C[C@@H]1CCCCN1c1cc(-c2ccc3c(N)n[nH]c3c2)nc(N)n1 . Reported %Inh: 0

Record Cc1cccc(-c2nc(Nc3ccncc3)c3ccccc3n2)n1 . Reported %Inh: 0

Record CN1C(=O)C(Nc2ccc(Cl)c(C(=O)O)c2)=C(c2ccc(Cl)cc2)C1=O . Reported %Inh: 12

Record CCn1c(-c2ccccn2)nc2cnccc21 . Reported %Inh: 0

Record Cl.Oc1ccc(-c2nc(-c3ccccc3)[nH]c2-c2ccncc2)cc1 . Reported %Inh: 0

Record Cl.c1ccc(-c2n[nH]cc2-c2ccnc(-c3ccc(CN4CCOCC4)cc3)c2)nc1 . Reported %Inh: 17

Record Cc1cccc(-c2nc(C)cc(Nc3ccncc3)n2)n1 . Reported %Inh: 0

The measured values listed here are drawn from paper PMC5540273.
